# test name: Selectivity index, ratio of IC50 for hTERT-RPE1 cells to IC50 for human CCRF-CEM cells
# Type: toxicity
# test settings: hTERT-RPE1 cells versus CCRF-CEM cells, read-out: Ratio IC50
property name: selectivity ratio

Dear colleague, could you please provide selectivity ratio for the compounds listed below?
1. O=C(N/N=C/c1cc2ccccc2nc1Cl)c1cc2cc([N+](=O)[O-])ccc2oc1=O
2. CCOc1ccc(NC(=O)c2cc3ccccc3oc2=O)cc1
3. O=C(N/N=C/c1ccncc1)c1cc2cc([N+](=O)[O-])ccc2oc1=O
4. O=C(N/N=C/c1cc2ccccc2nc1Cl)c1cc2cc(Br)ccc2oc1=O
5. Cc1noc(NS(=O)(=O)c2ccc(NC(=O)c3cc4ccc(O)cc4oc3=O)cc2)c1C

["> 1.92", "> 2.79", "> 3.86", "> 6.71", "> 2.33"]

---

# Tested on: TERT-RPE1
# test name: Cytotoxicity against hTERT-RPE1 cells at 6.25 uM after 48 hrs by resazurin dye-based fluorescence assay relative to control
# Format: cell-based
# test settings: human, tert-rpe1, 48 h
property name: Activity (%)
One number for each entry, in %.

Consider the worked cases shown below.
{"columns": ["compound structure string", "Activity, %"],
 "data": [
  ["O=C(N/N=C/c1ccncc1)c1cc2cc(Br)ccc2oc1=O", 9.63],
  ["CCOc1ccc(NC(=O)c2cc3ccc(O)cc3oc2=O)cc1", 11.23]
]}

Dear colleague, could you please provide Activity for the compounds listed below?
1. CCOc1ccc(NC(=O)c2cc3cc([N+](=O)[O-])ccc3oc2=O)cc1
2. CCOc1ccc2nc(Cl)c(/C=N/NC(=O)c3cc4cc(Br)ccc4oc3=O)cc2c1
3. CCOc1ccc2nc(Cl)c(/C=N/NC(=O)c3cc4ccccc4oc3=O)cc2c1

[5.12, 5.41, 1.13]

---

Assignment: determine reported Activity for the given compounds.
# Test system: hTERT-BJ
# test name: Cytotoxicity against hTERT-BJ cells at 25 uM after 48 hrs by resazurin dye-based fluorescence assay relative to control
# Format: cell-based
# test settings: human
For clarity, give the value followed by its unit.

Consider the worked cases shown below.
{"columns": ["compound structure string", "value measured"],
 "data": [
  ["CCOc1ccc2nc(Cl)c(/C=N/NC(=O)c3cc4cc([N+](=O)[O-])ccc4oc3=O)cc2c1", "2.13%"],
  ["CCOc1ccc(NC(=O)c2cc3cc([N+](=O)[O-])ccc3oc2=O)cc1", "5.22%"]
]}

Dear colleague, could you please provide Activity for the compounds listed below?
1. O=C(N/N=C/c1cccnc1)c1cc2cc([N+](=O)[O-])ccc2oc1=O
2. O=C(N/N=C/c1ccncc1)c1cc2cc(Br)ccc2oc1=O
3. Cc1noc(NS(=O)(=O)c2ccc(NC(=O)c3cc4ccccc4oc3=O)cc2)c1C
4. O=C(N/N=C/c1cccnc1)c1cc2ccc(O)cc2oc1=O
5. O=C(N/N=C/c1cc2ccccc2nc1Cl)c1cc2cc(Br)ccc2oc1=O
6. O=C(N/N=C/c1ccncc1)c1cc2cc([N+](=O)[O-])ccc2oc1=O

1. 3.22%
2. 1.37%
3. 15.88%
4. 1.99%
5. 3.47%
6. 6.48%

Dear colleague, could you please provide Activity for the compounds listed below?
1. Cc1noc(NS(=O)(=O)c2ccc(NC(=O)c3cc4cc([N+](=O)[O-])ccc4oc3=O)cc2)c1C
2. Cc1noc(NS(=O)(=O)c2ccc(NC(=O)c3cc4ccc(O)cc4oc3=O)cc2)c1C
3. CCOc1ccc2nc(Cl)c(/C=N/NC(=O)c3cc4ccccc4oc3=O)cc2c1

1. 7.18%
2. 3.63%
3. 3.92%

Dear colleague, could you please provide Activity for the compounds listed below?
1. O=C(N/N=C/c1cc2ccccc2nc1Cl)c1cc2cc([N+](=O)[O-])ccc2oc1=O
2. CCOc1ccc2nc(Cl)c(/C=N/NC(=O)c3cc4cc(Br)ccc4oc3=O)cc2c1
3. CCOc1ccc(NC(=O)c2cc3ccccc3oc2=O)cc1
4. O=C(N/N=C/c1cccnc1)c1cc2cc(Br)ccc2oc1=O

1. 1.77%
2. 2.63%
3. 2.82%
4. 1.7%

---

# test name: Selectivity index, ratio of IC50 for hTERT-RPE1 cells to IC50 for human CCRF-CEM cells
# Assay type: toxicity
# test settings: hTERT-RPE1 cells versus CCRF-CEM cells, read-out: Ratio IC50
property name: selectivity ratio

{"columns": ["compound structure string", "selectivity ratio"],
 "data": [
  ["Cc1noc(NS(=O)(=O)c2ccc(NC(=O)c3cc4cc(Br)ccc4oc3=O)cc2)c1C", "> 3.43"],
  ["O=C(N/N=C/c1ccncc1)c1cc2cc(Br)ccc2oc1=O", "> 7.88"],
  ["COc1cccc2c1C(=O)c1c(O)c3c(c(O)c1C2=O)C[C@@](O)(C(=O)CO)C[C@@H]3O[C@H]1C[C@H](N)[C@H](O)[C@H](C)O1", "< 5.95"]
]}

Switching to the query record.
Which selectivity ratio value is on record for `Cc1noc(NS(=O)(=O)c2ccc(NC(=O)c3cc4cc([N+](=O)[O-])ccc4oc3=O)cc2)c1C` ?
> 3.49

---

# Tested on: hTERT-BJ
# test name: Cytotoxicity against hTERT-BJ cells at 6.25 uM after 48 hrs by resazurin dye-based fluorescence assay relative to control
# Type: cell-based
# test settings: human
property name: Activity (%)
One number for each entry, in %.

Consider the worked cases shown below.
{"columns": ["compound structure string", "Activity, %"],
 "data": [
  ["O=C(N/N=C/c1cc2ccccc2nc1Cl)c1cc2cc(Br)ccc2oc1=O", 1.98],
  ["CCOc1ccc(NC(=O)c2cc3cc(Br)ccc3oc2=O)cc1", 2.3],
  ["CCOc1ccc2nc(Cl)c(/C=N/NC(=O)c3cc4ccc(O)cc4oc3=O)cc2c1", 3.67]
]}

Dear colleague, could you please provide Activity for the molecules listed below?
1. O=C(N/N=C/c1ccncc1)c1cc2cc(Br)ccc2oc1=O
2. Cc1noc(NS(=O)(=O)c2ccc(NC(=O)c3cc4ccc(O)cc4oc3=O)cc2)c1C
3. CCOc1ccc(NC(=O)c2cc3ccc(O)cc3oc2=O)cc1
4. CCOc1ccc2nc(Cl)c(/C=N/NC(=O)c3cc4ccccc4oc3=O)cc2c1
5. O=C(N/N=C/c1cc2ccccc2nc1Cl)c1cc2cc([N+](=O)[O-])ccc2oc1=O
6. CCOc1ccc2nc(Cl)c(/C=N/NC(=O)c3cc4cc(Br)ccc4oc3=O)cc2c1
7. O=C(N/N=C/c1cccnc1)c1cc2ccc(O)cc2oc1=O

1: 0.6; 2: 1.17; 3: 10.17; 4: 2.77; 5: 1.2; 6: 0.53; 7: 0.5

Dear colleague, could you please provide Activity for the molecules listed below?
1. CCOc1ccc2nc(Cl)c(/C=N/NC(=O)c3cc4cc([N+](=O)[O-])ccc4oc3=O)cc2c1
2. CCOc1ccc(NC(=O)c2cc3cc([N+](=O)[O-])ccc3oc2=O)cc1
3. Cc1noc(NS(=O)(=O)c2ccc(NC(=O)c3cc4cc(Br)ccc4oc3=O)cc2)c1C
4. O=C(N/N=C/c1cccnc1)c1cc2ccccc2oc1=O
5. Cc1noc(NS(=O)(=O)c2ccc(NC(=O)c3cc4ccccc4oc3=O)cc2)c1C
6. Cc1noc(NS(=O)(=O)c2ccc(NC(=O)c3cc4cc([N+](=O)[O-])ccc4oc3=O)cc2)c1C
7. O=C(N/N=C/c1ccncc1)c1cc2ccccc2oc1=O
8. O=C(N/N=C/c1cccnc1)c1cc2cc(Br)ccc2oc1=O

1.58
3.1
0.95
0.21
8.49
2.53
0.6
0.86

Dear colleague, could you please provide Activity for the molecules listed below?
1. O=C(N/N=C/c1ccncc1)c1cc2cc([N+](=O)[O-])ccc2oc1=O
2. O=C(N/N=C/c1cccnc1)c1cc2cc([N+](=O)[O-])ccc2oc1=O
3. CCOc1ccc(NC(=O)c2cc3ccccc3oc2=O)cc1

1. 0.78
2. 3.59
3. 0.59

---

# Tested on: TERT-RPE1
# test name: Cytotoxicity against hTERT-RPE1 cells at 25 uM after 48 hrs by resazurin dye-based fluorescence assay relative to control
# Format: cell-based
# test settings: human, tert-rpe1, 48 h
Returns: string. Value is Fulfilled if measured Activity is below 10%, and Not fulfilled if it is greater than or equal to it.

{"columns": ["compound structure string", "class name"],
 "data": [
  ["O=C(N/N=C/c1ccncc1)c1cc2cc(Br)ccc2oc1=O", "Not fulfilled"],
  ["CCOc1ccc2nc(Cl)c(/C=N/NC(=O)c3cc4ccc(O)cc4oc3=O)cc2c1", "Fulfilled"],
  ["O=C(N/N=C/c1cccnc1)c1cc2ccc(O)cc2oc1=O", "Not fulfilled"],
  ["Cc1noc(NS(=O)(=O)c2ccc(NC(=O)c3cc4ccc(O)cc4oc3=O)cc2)c1C", "Fulfilled"],
  ["Cc1noc(NS(=O)(=O)c2ccc(NC(=O)c3cc4ccccc4oc3=O)cc2)c1C", "Not fulfilled"]
]}

Strictly below 10% in Activity? `O=C(N/N=C/c1ccncc1)c1cc2ccccc2oc1=O`
Not fulfilled

Strictly below 10% in Activity? `CCOc1ccc2nc(Cl)c(/C=N/NC(=O)c3cc4cc(Br)ccc4oc3=O)cc2c1`
Not fulfilled

Strictly below 10% in Activity? `CCOc1ccc2nc(Cl)c(/C=N/NC(=O)c3cc4cc([N+](=O)[O-])ccc4oc3=O)cc2c1`
Fulfilled

Strictly below 10% in Activity? `O=C(N/N=C/c1ccncc1)c1cc2cc([N+](=O)[O-])ccc2oc1=O`
Not fulfilled

Strictly below 10% in Activity? `Cc1noc(NS(=O)(=O)c2ccc(NC(=O)c3cc4cc([N+](=O)[O-])ccc4oc3=O)cc2)c1C`
Fulfilled
